Source: patent US20060166989A1

- tgt: IP receptor (Homo sapiens, UniProt P43119)
- Construct: HEL cells were collected with centrifugation and washed with cAMP assay buffer
- Sequence (P43119 whole entry): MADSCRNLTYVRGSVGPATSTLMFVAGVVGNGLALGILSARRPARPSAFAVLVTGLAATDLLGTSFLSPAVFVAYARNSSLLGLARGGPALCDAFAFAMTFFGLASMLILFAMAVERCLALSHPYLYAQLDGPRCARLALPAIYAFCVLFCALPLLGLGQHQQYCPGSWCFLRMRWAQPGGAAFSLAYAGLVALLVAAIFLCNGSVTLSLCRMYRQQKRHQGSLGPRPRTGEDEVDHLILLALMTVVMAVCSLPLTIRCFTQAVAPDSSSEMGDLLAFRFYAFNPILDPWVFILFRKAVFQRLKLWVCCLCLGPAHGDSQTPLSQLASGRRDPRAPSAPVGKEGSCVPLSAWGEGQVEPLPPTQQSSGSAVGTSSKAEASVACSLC
- assay method text: Iloprost-induced cAMP production assay in HEL cells (Assay 2)
- settings: read-out: Activity grade assay 2
pIC50: −log10 of the molar value.
quantity kind: pIC50

O=C(NC(Cc1ccccc1)C(=O)O)c1ccc2cc(OCc3cccc(O)c3)ccc2c1 (centres unmarked) on IP receptor (Homo sapiens, UniProt P43119) gives pIC50 = > 7.00

O=C(NC(Cc1c[nH]c2ccc(O)cc12)C(=O)O)c1ccc2cc(OCc3ccccc3)ccc2c1 (centres unmarked) on IP receptor (Homo sapiens, UniProt P43119) gives pIC50 = > 7.00

O=C(NC(Cc1ccccc1)C(=O)O)c1ccc2cc(OCc3ccc(F)cc3F)ccc2c1 (centres unmarked) on IP receptor (Homo sapiens, UniProt P43119) gives pIC50 = 6.00 to 7.00

O=C(NC(Cc1ccc(Cl)cc1)C(=O)O)c1ccc2cc(OCc3ccccc3)ccc2c1 (centres unmarked) on IP receptor (Homo sapiens, UniProt P43119) gives pIC50 = > 7.00

O=C(NC(Cc1ccc(-c2ccccc2)cc1)C(=O)O)c1ccc2cc(OCc3ccccc3)ccc2c1 (centres unmarked) on IP receptor (Homo sapiens, UniProt P43119) gives pIC50 = 6.00 to 7.00

O=C(NC(Cc1ccccc1)C(=O)O)c1ccc2cc(OCC3CCCCC3)ccc2c1 (centres unmarked) on IP receptor (Homo sapiens, UniProt P43119) gives pIC50 = 6.00 to 7.00

O=C(NC(Cc1ccccc1)C(=O)O)c1ccc2cc(OCc3cc(Cl)cc(Cl)c3)ccc2c1 (centres unmarked) on IP receptor (Homo sapiens, UniProt P43119) gives pIC50 = > 7.00

O=C(NC(Cc1ccccc1)C(=O)O)c1ccc2cc(OCc3ccc(F)c(F)c3)ccc2c1 (centres unmarked) on IP receptor (Homo sapiens, UniProt P43119) gives pIC50 = > 7.00

###

- tgt: IP receptor (Homo sapiens)
- Construct: HEL cells were collected with centrifugation and washed with cAMP assay buffer
- assay method text: Iloprost-induced cAMP production assay in HEL cells (Assay 2)
- settings: read-out: Activity grade assay 2
pIC50: −log10 of the molar value.
quantity kind: pIC50

Quick note, pIC50 for COc1cc(CC(NC(=O)c2ccc3cc(OCc4ccccc4)ccc3c2)C(=O)O)ccc1O (centres unmarked) [Example 1-17] landed at > 7.00

Quick note, pIC50 for CC(Cc1ccccc1)(NC(=O)c1ccc2cc(OCc3ccccc3)ccc2c1)C(=O)O (centres unmarked) [Example 1-84] landed at 6.00 to 7.00

Quick note, pIC50 for O=C(NC(Cc1ccccc1)C(=O)O)c1ccc2cc(OCc3ccc(C(F)(F)F)cc3)ccc2c1 (centres unmarked) [Example 1-28] landed at < 6.00

Quick note, pIC50 for CCCCOc1ccc2cc(C(=O)NC(Cc3ccccc3)C(=O)O)ccc2c1 (centres unmarked) [Example 1-65] landed at 6.00 to 7.00

Quick note, pIC50 for O=C(NC(Cc1ccccc1)C(=O)O)c1ccc2cc(OCCCn3cccc3)ccc2c1 (centres unmarked) [Example 1-63] landed at 6.00 to 7.00

Quick note, pIC50 for COc1cc(COc2ccc3cc(C(=O)NC(Cc4ccccc4)C(=O)O)ccc3c2)cc(OC)c1 (centres unmarked) [Example 1-35] landed at > 7.00

Quick note, pIC50 for O=C(NC(Cc1ccccc1)C(=O)O)c1ccc2cc(OCCn3cccc3)ccc2c1 (centres unmarked) [Example 1-11] landed at > 7.00

Quick note, pIC50 for COc1ccccc1COc1ccc2cc(C(=O)NC(Cc3ccccc3)C(=O)O)ccc2c1 (centres unmarked) [Example 1-29] landed at > 7.00
